Every entry's value here was drawn from patent US20250115600A1.

target system: AKT1 E17K (Homo sapiens (Human), UniProt P31749, E17K)
Sequence (P31749 whole entry E17K): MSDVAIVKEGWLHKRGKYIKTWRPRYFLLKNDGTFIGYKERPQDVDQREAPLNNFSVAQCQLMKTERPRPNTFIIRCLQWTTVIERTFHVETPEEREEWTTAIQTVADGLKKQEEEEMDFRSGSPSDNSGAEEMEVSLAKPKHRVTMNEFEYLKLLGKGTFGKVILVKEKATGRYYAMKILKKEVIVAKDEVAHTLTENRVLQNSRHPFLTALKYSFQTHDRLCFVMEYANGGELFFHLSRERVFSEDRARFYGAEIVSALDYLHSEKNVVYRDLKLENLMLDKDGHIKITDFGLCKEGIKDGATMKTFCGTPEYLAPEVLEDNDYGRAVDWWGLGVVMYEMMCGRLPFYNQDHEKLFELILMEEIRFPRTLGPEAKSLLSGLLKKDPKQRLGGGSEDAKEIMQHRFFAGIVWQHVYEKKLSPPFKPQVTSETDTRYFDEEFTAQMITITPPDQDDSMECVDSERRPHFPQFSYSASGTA
run description: Live cell target engagement (NanoBRET) in HEK293 cells
Type: cell-based
property label: AKT1 E17K IC50: Selectivity vs AKT2

1) Nc1ncccc1-c1nc2ccc(-c3cccnc3)nc2n1-c1ccc(CNCCc2ccc(C=O)c(O)c2)cc1 57
2) Nc1ncccc1-c1nc2ccc(-c3cccc(N4CCOCC4)c3)nc2n1-c1ccc(CNCCc2ccc(C=O)c(O)c2)cc1 2.1
3) CC1(c2ccc3nc(-c4cccnc4N)n(-c4ccc(CNC(=O)Cc5ccc(C=O)c(O)c5)cc4)c3n2)CC1 150
4) Nc1ncccc1-c1nc2ccc(C3CC3)nc2n1-c1ccc(CNCCc2ccc(C=O)c(O)c2)cc1 41
5) Nc1ncccc1-c1nc2ccc(OC3CC3)nc2n1-c1ccc(CNC(=O)Cc2ccc(C=O)c(O)c2)cc1 160
6) COc1cc(CCNCc2ccc(-n3c(-c4cccnc4N)nc4ccc(-c5ccccc5)nc43)cc2)ccc1C=O 1.9
7) Nc1ncccc1-c1nc2ccc(-c3ccccc3)nc2n1-c1ccc(CCNCCc2ccc(C=O)c(O)c2)cc1 9.2
8) Nc1ncccc1-c1nc2cccnc2n1-c1ccc(CCC(=O)Nc2ccc(C=O)c(O)c2)cc1 74
9) Nc1ncccc1-c1nc2ccc(-c3cccc(N4CCOCC4)c3)nc2n1-c1ccc(CNC(=O)c2ccc(O)c(C=O)c2)cc1 6
10) Nc1ncccc1-c1nc2ccc(-c3ccncc3)nc2n1-c1ccc(CNC(=O)Cc2ccc(C=O)c(O)c2)cc1 66
11) CN(CCc1ccc(-n2c(-c3cccnc3N)nc3ccc(-c4ccccc4)nc32)cc1)Cc1ccc(C=O)c(O)c1 5.2

---

target system: AKT1 WT (Homo sapiens (Human))
Sequence (P31749 whole entry): as the sequence (P31749 whole entry E17K) above, with K17E counted along it
run description: Live cell target engagement (NanoBRET) in HEK293 cells
Type: cell-based
run parameters: HEK293, 2 hours at 37° C.
IC50 for assorted molecules
property label: IC50

1. Nc1ncccc1-c1nc2cccnc2n1-c1ccc(CNC(=O)c2cnc(O)c(C=O)c2)cc1 > 0.5 µM
2. Cc1ccc2nc(-c3cccnc3N)n(-c3ccc(C4(NC(=O)Cc5ccc(C=O)c(O)c5F)CC4)cc3)c2n1 < 0.1 µM
3. Nc1ncccc1-c1nc2ccc(-c3cccc(N4CCOCC4)c3)nc2n1-c1ccc(CNCCc2ccc(C=O)c(O)c2)cc1 < 0.1 µM
4. Nc1ncccc1-c1nc2ccc(C(F)F)nc2n1-c1ccc(CNC(=O)Cc2ccc(C=O)c(O)c2)cc1 0.1 to 0.5 µM
5. Nc1ncccc1-c1nc2ccc(-c3ccccc3)nc2n1-c1ccc(CNC(=O)Cc2ccc(C=O)c(O)c2)cc1 < 0.1 µM
6. COc1ccc2nc(-c3cccnc3N)n(-c3ccc(CNC(=O)Cc4ccc(C=O)c(O)c4)cc3)c2n1 0.1 to 0.5 µM
7. Cc1c(CC(=O)NCc2ccc(-n3c(-c4cccnc4N)nc4ccc(-c5ccccc5)nc43)cc2)ccc(C=O)c1O < 0.1 µM
8. Nc1ncccc1-c1nc2ccc(NC3CC3)nc2n1-c1ccc(CNC(=O)Cc2ccc(C=O)c(O)c2)cc1 < 0.1 µM
9. Nc1ncccc1-c1nc2ccc(-c3ccccc3)nc2n1-c1ccc(CCNCc2ccc(C=O)c(O)c2)cc1 < 0.1 µM
10. Nc1ncccc1-c1nc2ccc(-c3ccccc3)nc2n1-c1ccc(CNCCc2ccc(C=O)c(O)c2F)cc1 < 0.1 µM
